target: Glucocorticoid receptor (Homo sapiens) (UniProt P04150); assay: qHTS assay to identify small molecule agonists of the glucocorticoid receptor (GR) signaling pathway (AID 720691); settings: GR-bla HeLa, beta-lactamase reporter ratio, 18 h
Sequence (P04150 whole entry, looked up): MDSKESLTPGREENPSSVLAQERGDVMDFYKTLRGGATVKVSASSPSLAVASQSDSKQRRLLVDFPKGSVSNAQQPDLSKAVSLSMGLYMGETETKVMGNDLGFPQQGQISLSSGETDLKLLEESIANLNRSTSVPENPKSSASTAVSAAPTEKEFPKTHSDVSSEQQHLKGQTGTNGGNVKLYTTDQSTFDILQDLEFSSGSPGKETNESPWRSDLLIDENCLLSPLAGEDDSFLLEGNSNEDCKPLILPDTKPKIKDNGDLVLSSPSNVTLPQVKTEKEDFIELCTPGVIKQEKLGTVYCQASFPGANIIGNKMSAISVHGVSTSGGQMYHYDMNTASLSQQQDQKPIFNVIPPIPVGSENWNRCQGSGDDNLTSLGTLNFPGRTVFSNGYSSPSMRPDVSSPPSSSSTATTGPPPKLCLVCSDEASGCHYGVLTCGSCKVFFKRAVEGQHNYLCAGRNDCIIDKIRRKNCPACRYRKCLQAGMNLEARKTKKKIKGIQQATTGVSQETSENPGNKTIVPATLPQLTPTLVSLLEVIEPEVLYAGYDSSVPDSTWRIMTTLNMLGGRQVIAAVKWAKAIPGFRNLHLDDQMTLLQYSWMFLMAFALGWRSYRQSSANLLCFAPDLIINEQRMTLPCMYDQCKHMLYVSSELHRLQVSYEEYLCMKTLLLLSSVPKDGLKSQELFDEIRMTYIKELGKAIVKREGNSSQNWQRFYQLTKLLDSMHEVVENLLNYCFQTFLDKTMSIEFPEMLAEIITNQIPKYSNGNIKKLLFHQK
The source made the active and inactive calls. Calls come from the whole dose curve; as a rule, active = well fitted activation curve with a large enough effect in the signal ratio in the repeat runs (not every such curve was filed as active); inconclusive = weak or mixed curves, or effect the other way; inactive = no such curve, though single readings can be large or run the other way; the % refers to the signal ratio.
Labels: active, inactive

MOLECULE	TARGET	CLASS_NAME
CC#CCC(C)[C@H](O)/C=C/[C@@H]1[C@H]2C/C(=C/CCCC(=O)O)C[C@H]2C[C@H]1O (some centres not stated)	Glucocorticoid receptor (Homo sapiens) (UniProt P04150)	inactive
CCCCCCCCCCCCCCCCCC(=O)[O][Al]	Glucocorticoid receptor (Homo sapiens) (UniProt P04150)	inactive
C[C@]12C=CC(=O)C=C1CC[C@@H]1[C@@H]2[C@@H](O)C[C@@]2(C)[C@H]1CC[C@]2(O)C(=O)COC(=O)CCC(=O)O	Glucocorticoid receptor (Homo sapiens) (UniProt P04150)	active
CCOC(=O)CN[C@@H](C(=O)N1CC[C@H]1C(=O)NCc1ccc(/C(N)=N/O)cc1)C1CCCCC1	Glucocorticoid receptor (Homo sapiens) (UniProt P04150)	inactive
OC(CN1CCCCC1)c1cc(-c2ccccc2)on1 (configuration not stated)	Glucocorticoid receptor (Homo sapiens) (UniProt P04150)	inactive
Nc1ncnc2c1ncn2[C@@H]1O[C@H](COP(=O)(O)OP(=O)(O)OP(=O)(O)O)[C@@H](O)[C@H]1O	Glucocorticoid receptor (Homo sapiens) (UniProt P04150)	inactive
Cc1cc(C)c(NC(=O)C[C@H](CC(=O)O)c2cccc3ccccc23)c(C(=O)N2CCC3(CCCC3)CC2)c1	Glucocorticoid receptor (Homo sapiens) (UniProt P04150)	inactive
CC(C)(CO)[C@@H](O)C(=O)NCCC(=O)NCCSSCCNC(=O)CCNC(=O)[C@H](O)C(C)(C)CO	Glucocorticoid receptor (Homo sapiens) (UniProt P04150)	inactive
N#Cc1ccc2c(c1)N(CCCN1CCC(O)CC1)c1ccccc1S2	Glucocorticoid receptor (Homo sapiens) (UniProt P04150)	inactive
Cc1cccc(C)c1N(CCCc1cccnc1)C(=O)C(C)N (configuration not stated)	Glucocorticoid receptor (Homo sapiens) (UniProt P04150)	inactive
C/C1=C2N=C(/C=C3N=C(/C(C)=C4\[N-][C@@](C)([C@@H]5N=C1[C@](C)(CCC(=O)NCC(C)OP(=O)(O)O[C@H]1[C@@H](O)[C@@H](n6cnc7cc(C)c(C)cc76)O[C@@H]1CO)[C@H]5CC(N)=O)[C@@](C)(CC(N)=O)[C@@H]4CCC(N)=O)[C@@](C)(CC(N)=O)[C@@H]\3CCC(N)=O)C(C)(C)[C@@H]/2CCC(N)=O.CC(=O)O.[Co] (some centres not stated)	Glucocorticoid receptor (Homo sapiens) (UniProt P04150)	inactive
CC(=O)[C@@]1(O)CC[C@H]2[C@@H]3C=C(Cl)C4=CC(=O)[C@@H]5C[C@@H]5[C@]4(C)[C@H]3CC[C@@]21C	Glucocorticoid receptor (Homo sapiens) (UniProt P04150)	inactive
O=C(CCCCCCCCCCCCC1CCCC1)Nc1ccc(S(=O)(=O)c2ccc(NC(=O)CCCCCCCCCCCCC3CCCC3)cc2)cc1	Glucocorticoid receptor (Homo sapiens) (UniProt P04150)	inactive
CCN(CC)c1ccc(N=Nc2ccc(S(=O)(=O)N(C)C)cc2)c(S(=O)(=O)NCC[n+]2ccccc2)c1	Glucocorticoid receptor (Homo sapiens) (UniProt P04150)	inactive
CC(C)(S)[C@@H](N)C(=O)O	Glucocorticoid receptor (Homo sapiens) (UniProt P04150)	inactive
COC(=O)CCC(=O)CN	Glucocorticoid receptor (Homo sapiens) (UniProt P04150)	inactive
CN[C@@H]1[C@@H](O)[C@@H](O[C@@H]2[C@@H](O)[C@H](OC3OC(CN)=CCC3N)[C@@H](N)C[C@H]2N)OC[C@]1(C)O (some centres not stated)	Glucocorticoid receptor (Homo sapiens) (UniProt P04150)	inactive
CC(=O)Oc1cc(C)c(OC(C)=O)c2ccccc12	Glucocorticoid receptor (Homo sapiens) (UniProt P04150)	inactive
CC1(C)S[C@@H]2[C@H](NC(=O)[C@H](NC(=O)N3CCN(S(C)(=O)=O)C3=O)c3ccccc3)C(=O)N2[C@H]1C(=O)O	Glucocorticoid receptor (Homo sapiens) (UniProt P04150)	inactive
COC1=C(C(=O)O)N2C(=O)[C@@H](NC(=O)[C@H](N)C3=CCC=CC3)[C@H]2SC1	Glucocorticoid receptor (Homo sapiens) (UniProt P04150)	inactive
C[C@]12CCC(=O)C=C1CC[C@@H]1[C@@H]2[C@@H](O)C[C@@]2(C)[C@H]1CC[C@]2(O)C(=O)COP(=O)(O)O	Glucocorticoid receptor (Homo sapiens) (UniProt P04150)	active
NNc1nnc(Cc2ccncc2)c2ccccc12	Glucocorticoid receptor (Homo sapiens) (UniProt P04150)	inactive
COc1cc2c(cc1OC)CC(=O)N(CCCN(C)C[C@H]1Cc3cc(OC)c(OC)cc31)CC2	Glucocorticoid receptor (Homo sapiens) (UniProt P04150)	inactive
CN=C(NC)NCc1ccccc1	Glucocorticoid receptor (Homo sapiens) (UniProt P04150)	inactive
CC(=O)O[C@H]1C(=O)[C@@]2(C)[C@H]([C@H](OC(=O)c3ccccc3)[C@]3(O)C[C@H](OC(=O)[C@H](O)[C@@H](NC(=O)c4ccccc4)c4ccccc4)C(C)=C1C3(C)C)[C@]1(OC(C)=O)CO[C@@H]1C[C@@H]2O	Glucocorticoid receptor (Homo sapiens) (UniProt P04150)	inactive
CCCCCCCN(CC)CCCC(O)c1ccc(NS(C)(=O)=O)cc1 (configuration not stated)	Glucocorticoid receptor (Homo sapiens) (UniProt P04150)	inactive
CCCCCCCCCCCCCCCCSCC(COC)COP(=O)([O-])OCC[N+](C)(C)C (configuration not stated)	Glucocorticoid receptor (Homo sapiens) (UniProt P04150)	inactive
COc1ccc(C(=O)Nc2ccccc2CCC2CCCCN2C)cc1 (configuration not stated)	Glucocorticoid receptor (Homo sapiens) (UniProt P04150)	inactive
CC(C)(C)NCC(O)c1ccc(O)c(CO)n1 (configuration not stated)	Glucocorticoid receptor (Homo sapiens) (UniProt P04150)	inactive
CC#CCC(C)[C@H](O)/C=C/[C@@H]1[C@H]2c3cccc(CCCC(=O)O)c3O[C@H]2C[C@H]1O (some centres not stated)	Glucocorticoid receptor (Homo sapiens) (UniProt P04150)	inactive
CCOC(=O)[C@H](CCc1ccccc1)N[C@@H](C)C(=O)N1CC2(C[C@H]1C(=O)O)SCCS2	Glucocorticoid receptor (Homo sapiens) (UniProt P04150)	inactive
CCOC(=O)CCC(=O)O[C@H]1[C@H](O[C@@H]2[C@@H](C)[C@H](O[C@H]3C[C@@](C)(OC)[C@@H](O)[C@H](C)O3)[C@@H](C)C(=O)O[C@H](CC)[C@@](C)(O)[C@H](O)[C@@H](C)C(=O)[C@H](C)C[C@@]2(C)O)O[C@H](C)C[C@@H]1N(C)C	Glucocorticoid receptor (Homo sapiens) (UniProt P04150)	inactive
